Where these numbers come from: ChEMBL document CHEMBL3301555

Tested on: Plasmodium falciparum
Test: MMV: Measure of pLDH activity as indication of parasite viability. Gametocytogenesis of 3D7 Plasmodium falciparum strain was induced in vitro and asexual parasites were depleted with N-acetylglucosamine. Gametocytes were treated with dihydroartemisinin, epoxomicin, methylene blue, primaquine, puromycin or chloroquine in 96-well plates and the pLDH activity was evaluated using a modified Makler protocol. Mosquito infectivity was measured by the standard membrane feeding assay.
Format: functional
Design: concentration or dose not given beside the values
Growth Inhibition vs 10%: less than gives Condition met; not less than gives Condition not met.

- molecule: "CCOc1ccc(/C=C/c2nc(=O)c3ccccc3o2)cc1"
  cat: "Condition met"
- molecule: "Cc1cc(NC(=O)C2c3ccccc3C(=O)N(CC(C)C)C2c2cccs2)no1 (centres undefined)"
  cat: "Condition not met"
- molecule: "Cc1cc(C)c2nc(N3CCC(C(=O)NCCCN4CCC(N5CCCCC5)CC4)CC3)sc2c1"
  cat: "Condition not met"
- molecule: "O=C(CCc1ccccc1)c1ccccc1OCC(O)CN1CCCCC1 (centres undefined)"
  cat: "Condition not met"
- molecule: "COc1ccc(-c2cc3c(nn2)-c2ccccc2C3=O)cc1"
  cat: "Condition not met"
- molecule: "CCOc1ccccc1NC(=O)CN1CCN(C(=O)c2ccco2)CC1"
  cat: "Condition met"
- molecule: "COCCNCC(O)Cn1c2ccc(Cl)cc2c2cc(Cl)ccc21 (centres undefined)"
  cat: "Condition not met"
- molecule: "Cc1ccc(Nc2nc(-c3ccccn3)cs2)cc1"
  cat: "Condition not met"
- molecule: "O=C(Nc1ccc(F)c(Cl)c1)Nc1ccc(Cl)c(Cl)c1"
  cat: "Condition met"
- molecule: "COc1cc(SC)ccc1C(=O)N1CCCC(C)C1 (centres undefined)"
  cat: "Condition not met"
- molecule: "CCN(CC)CCCNc1nc(-c2ccc(Cl)cc2)nc2ccccc12"
  cat: "Condition met"
- molecule: "CC(=O)c1ccc(NC(=O)CSc2nc(-c3ccccc3Cl)ns2)cc1"
  cat: "Condition met"
- molecule: "O=[N+]([O-])c1ccc(C=NNc2nc3ccccc3[nH]2)cc1"
  cat: "Condition met"
- molecule: "CCCN(CCC)CC(O)COc1ccccc1C(=O)Nc1ccccc1 (centres undefined)"
  cat: "Condition not met"
- molecule: "O=C(Nc1cccc(C2=NCCN2)c1)Nc1cccc(C2=NCCN2)c1"
  cat: "Condition not met"
- molecule: "CCn1nc(-c2ccc(C(=O)OC)cc2)nc2c(=O)n(C)c(=O)nc1-2"
  cat: "Condition not met"
- molecule: "Cl.N=c1n(CCN2CCCCC2)c2ccccc2n1CC(O)c1cccc(Br)c1 (centres undefined)"
  cat: "Condition not met"
- molecule: "CCn1c(CN2CCN(Cc3ccccc3)CC2)nc2cc(NC(=O)c3cccs3)ccc21"
  cat: "Condition not met"
- molecule: "COCCn1c(C)nc2ccccc2c1=O"
  cat: "Condition met"
- molecule: "Cc1cc(Nc2ccc3ccccc3c2)n2ncnc2n1"
  cat: "Condition met"
- molecule: "O=C(Nc1cccc(C(F)(F)F)c1)c1cc(Cl)ccc1O"
  cat: "Condition not met"
- molecule: "O=C(NC1CCN(Cc2ccccc2)CC1)c1cc(C(=O)NC2CCN(Cc3ccccc3)CC2)cc(C(=O)NC2CCN(Cc3ccccc3)CC2)c1"
  cat: "Condition not met"
- molecule: "COc1ccc(C2C(C(=O)Nc3cccc(OC)c3)c3ccccc3C(=O)N2C2CCCCC2)cc1 (centres undefined)"
  cat: "Condition met"
- molecule: "COc1ccc(-c2c(C)nn3c(N)c(C#N)cnc23)cc1OC"
  cat: "Condition not met"
- molecule: "COc1ccc(-c2cn3c(C(=O)Nc4ccccc4Cl)c(-c4ccccc4)c4c3n2CCCC4)cc1"
  cat: "Condition met"
- molecule: "COc1ccc2c(c1)OC(O)(C(F)(F)C(F)(F)F)CC2=O (centres undefined)"
  cat: "Condition not met"
- molecule: "O=C1c2ccccc2C2=Nc3ccccc3SC(c3cccc(F)c3)C12 (centres undefined)"
  cat: "Condition not met"
- molecule: "CN(C)CCNc1cc(-c2ccccc2)nc2ccccc12"
  cat: "Condition met"
- molecule: "COC(=O)c1ccc(Cl)c2c1C1C=CCC1C(c1cccc3ccccc13)N2 (centres undefined)"
  cat: "Condition met"
- molecule: "COc1cc(CNCCc2ccc(Cl)cc2)cc(OC)c1O"
  cat: "Condition not met"
- molecule: "COc1ccc2nc(C)cc(Nc3cccc(O)c3)c2c1.Cl"
  cat: "Condition not met"
- molecule: "CCn1c(SCC(=O)Nc2cc(C(F)(F)F)ccc2Cl)nc2ccccc2c1=O"
  cat: "Condition met"
- molecule: "COc1ccc(C=C2SC(Nc3ccc(F)cc3)=NC2=O)c(OC)c1"
  cat: "Condition not met"
- molecule: "CCN1CCN(c2c(C(=O)c3ccccc3)cnc3cc(OC)c(OC)cc23)CC1"
  cat: "Condition met"
- molecule: "Fc1ccc2[nH]c3c(NCCCN4CCOCC4)ncnc3c2c1"
  cat: "Condition met"
- molecule: "COc1ccc(-n2ccnc2SCC(=O)Nc2cc(C)ccc2C)c(OC)c1"
  cat: "Condition met"
- molecule: "Cl.Clc1cc(Br)ccc1-c1ccc(CNCC2CCNCC2)o1"
  cat: "Condition not met"
- molecule: "O=C(NC1CCCC1)c1ccc(N2CCC(NCc3cccc(C(F)(F)F)c3)CC2)cc1"
  cat: "Condition met"
- molecule: "Cc1cc(C=C2SC(=Nc3ccccc3)N(C3CCCC3)C2=O)c(C)n1-c1ccc(Cl)cc1"
  cat: "Condition met"
- molecule: "CCCC(c1nnnn1C1CCCCC1)N1CCN(C(=O)c2ccco2)CC1.Cl (centres undefined)"
  cat: "Condition not met"
- molecule: "CCOC(=O)C1CCN(C(=O)CN2C(=O)c3ccccc3C2c2c[nH]c3ccccc23)CC1 (centres undefined)"
  cat: "Condition not met"
- molecule: "c1ccc2c(NCCc3c[nH]c4ccccc34)c3ccccc3nc2c1"
  cat: "Condition not met"
